This collection of values is drawn from patent US10208089B2.

Catalogue of IC50 readings, one per entry.
# assayed_system: C5 (Homo sapiens)
# Sequence (P01031 19-1676): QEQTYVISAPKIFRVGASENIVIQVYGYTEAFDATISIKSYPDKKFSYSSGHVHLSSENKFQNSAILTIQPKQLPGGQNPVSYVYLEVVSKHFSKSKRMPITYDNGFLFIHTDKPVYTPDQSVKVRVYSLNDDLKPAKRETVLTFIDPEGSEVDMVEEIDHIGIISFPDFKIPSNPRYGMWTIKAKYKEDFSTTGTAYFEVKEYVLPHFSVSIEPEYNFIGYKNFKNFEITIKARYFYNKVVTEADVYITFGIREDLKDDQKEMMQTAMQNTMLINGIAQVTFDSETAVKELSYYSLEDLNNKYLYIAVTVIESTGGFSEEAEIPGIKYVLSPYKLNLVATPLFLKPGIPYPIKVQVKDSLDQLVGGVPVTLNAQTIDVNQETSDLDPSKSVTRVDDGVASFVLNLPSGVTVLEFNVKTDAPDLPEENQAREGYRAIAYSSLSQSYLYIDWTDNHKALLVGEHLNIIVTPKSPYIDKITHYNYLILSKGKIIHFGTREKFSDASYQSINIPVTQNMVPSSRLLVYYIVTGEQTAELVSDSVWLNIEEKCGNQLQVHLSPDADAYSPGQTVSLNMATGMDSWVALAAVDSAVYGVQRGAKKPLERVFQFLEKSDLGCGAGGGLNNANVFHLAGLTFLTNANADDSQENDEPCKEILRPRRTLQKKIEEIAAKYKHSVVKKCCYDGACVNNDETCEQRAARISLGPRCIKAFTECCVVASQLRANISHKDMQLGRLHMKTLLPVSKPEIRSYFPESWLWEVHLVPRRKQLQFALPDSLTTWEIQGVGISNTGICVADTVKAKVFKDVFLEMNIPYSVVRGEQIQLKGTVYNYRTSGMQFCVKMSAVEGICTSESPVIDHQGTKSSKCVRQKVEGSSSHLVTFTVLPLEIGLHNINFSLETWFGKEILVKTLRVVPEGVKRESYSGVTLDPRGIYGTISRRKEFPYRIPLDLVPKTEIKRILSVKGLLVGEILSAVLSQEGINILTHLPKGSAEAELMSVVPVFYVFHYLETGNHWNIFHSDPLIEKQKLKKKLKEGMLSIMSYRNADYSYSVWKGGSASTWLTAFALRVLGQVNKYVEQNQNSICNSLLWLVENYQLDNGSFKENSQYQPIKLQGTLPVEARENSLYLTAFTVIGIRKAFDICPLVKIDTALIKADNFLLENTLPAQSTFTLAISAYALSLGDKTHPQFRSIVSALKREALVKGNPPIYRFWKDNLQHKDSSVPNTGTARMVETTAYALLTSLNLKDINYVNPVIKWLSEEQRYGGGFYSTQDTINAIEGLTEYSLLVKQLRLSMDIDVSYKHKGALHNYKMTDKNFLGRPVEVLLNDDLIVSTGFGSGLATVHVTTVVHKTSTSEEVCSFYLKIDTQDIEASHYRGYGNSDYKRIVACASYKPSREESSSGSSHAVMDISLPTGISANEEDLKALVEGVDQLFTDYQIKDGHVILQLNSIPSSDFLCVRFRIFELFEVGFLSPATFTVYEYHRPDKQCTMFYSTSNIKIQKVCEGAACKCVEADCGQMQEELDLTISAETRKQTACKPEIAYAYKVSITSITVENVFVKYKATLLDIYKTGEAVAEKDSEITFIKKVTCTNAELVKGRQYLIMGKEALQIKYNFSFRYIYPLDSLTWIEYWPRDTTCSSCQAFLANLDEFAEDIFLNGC
# assay_protocol: Human hemolysis assay (RBC lysis assay using complete human sera)
# Type: cell-based
# Design: with complete human sera (Complement Technology, Tyler Tex.) and polypeptides; tissue Complement Technology, Tyler Tex; host or cells: complete human serum
# run_conditions: inhibition of lysis of antibody-sensitized sheep erythrocytes, complete human sera
Starred links: 1 amine or outer side, 2 acyl side, 3 side chain; linkers in the order of their positions; H or OH if unused. Positions of bridges follow the written chain, without caps; N, C: chain ends. Non-standard residues stand in square brackets, D forms with d. Residues, ends and D or L forms follow the SMILES beside them. Trp(7-aza) = N[C@@H](Cc1c[nH]c2ncccc12)C(=O)O; mXylylene = c1cc(C[*:1])cc(C[*:2])c1; Phg = N[C@H](C(=O)O)c1ccccc1; NMeS = CN[C@@H](CO)C(=O)O; Nva = CCC[C@H](N)C(=O)O

| compound | IC50 |
| --- | --- |
| CCC[C@H](NC(=O)[C@@H]1CSCc2cccc(c2)CSC[C@H](NC(=O)[C@H](CCC)NC(=O)[C@H](Cc2ccc(O)cc2)NC(C)=O)C(=O)N[C@@H](c2ccccc2)C(=O)N[C@@H]([C@@H](C)O)C(=O)N[C@@H](Cc2c[nH]c3ncccc23)C(=O)N[C@@H](CCC(=O)O)C(=O)N[C@@H](Cc2ccc(O)cc2)C(=O)N(C)[C@@H](CO)C(=O)N[C@@H](Cc2c[nH]cn2)C(=O)N1)C(N)=O [Compound R3113] (Ac-Y[Nva]C[Phg]T[Trp(7-aza)]EY[NMeS]HC[Nva]-NH2; linker 3-11 via mXylylene) | > 5 µM |

Provide only the value of recorded IC50 for CCC[C@H](NC(=O)[C@@H]1CSCc2cccc(c2)CSC[C@H](NC(=O)[C@H](CCC)NC(C)=O)C(=O)N[C@@H](c2ccccc2)C(=O)N[C@H](C)C(=O)N[C@@H](Cc2c[nH]c3ncccc23)C(=O)N[C@@H](CCC(=O)O)C(=O)N[C@@H](Cc2ccc(O)cc2)C(=O)N(C)[C@@H](CO)C(=O)N[C@@H](Cc2c[nH]cn2)C(=O)N1)C(N)=O [Compound R3133] (Ac-[Nva]C[Phg][dA][Trp(7-aza)]EY[NMeS]HC[Nva]-NH2; linker 2-10 via mXylylene)
> 75 µM

* * *

molecules and their reported pIC50
# assayed_system: C5 (Homo sapiens)
# assay_protocol: Human hemolysis assay (RBC lysis assay using complete human sera)
# Format: cell-based
# Parameters: with complete human sera (Complement Technology, Tyler Tex.) and polypeptides; tissue Complement Technology, Tyler Tex; host or cells: complete human serum
# run_conditions: inhibition of lysis of antibody-sensitized sheep erythrocytes, complete human sera
pIC50: −log10 of the molar value. Starred links: 1 amine or outer side, 2 acyl side, 3 side chain; linkers in the order of their positions; H or OH if unused. Positions of bridges follow the written chain, without caps; N, C: chain ends. Non-standard residues stand in square brackets, D forms with d. Residues, ends and D or L forms follow the SMILES beside them. Trp(5-F) = N[C@@H](Cc1c[nH]c2ccc(F)cc12)C(=O)O; Trp(7-aza) = N[C@@H](Cc1c[nH]c2ncccc12)C(=O)O; mXylylene = c1cc(C[*:1])cc(C[*:2])c1; Phg = N[C@H](C(=O)O)c1ccccc1; Tle = CC(C)(C)[C@H](N)C(=O)O; NMeS = CN[C@@H](CO)C(=O)O; hCys = N[C@@H](CCS)C(=O)O; Nva = CCC[C@H](N)C(=O)O

// worked examples, pIC50 included
| molecule | pIC50 |
| --- | --- |
| CCC[C@H](NC(=O)[C@@H]1CSCc2cccc(c2)CSC[C@H](NC(=O)[C@H](CCC)NC(C)=O)C(=O)N[C@@H](c2ccccc2)C(=O)N[C@@H]([C@@H](C)O)C(=O)N[C@@H](Cc2c[nH]c3ccc(F)cc23)C(=O)N[C@@H](CCC(=O)O)C(=O)N[C@@H](Cc2ccc(O)cc2)C(=O)N(C)[C@@H](CO)C(=O)N[C@@H](C)C(=O)N1)C(N)=O [Compound R3088] (Ac-[Nva]C[Phg]T[Trp(5-F)]EY[NMeS]AC[Nva]-NH2; linker 2-10 via mXylylene) | < 4.00 |
| CCC[C@H](NC(C)=O)C(=O)N[C@H]1CSCc2cccc(c2)CSC[C@@H](C(=O)N2CCC[C@H]2C(=O)N[C@H](C(=O)N[C@H](C(N)=O)C(C)(C)C)c2ccccc2)NC(=O)[C@H](CCC(=O)O)NC(=O)[C@H](Cc2c[nH]c3ncccc23)NC(=O)[C@H](CCC(=O)O)NC(=O)[C@H](C(C)(C)C)NC(=O)[C@H](CC(N)=O)NC(=O)[C@H](CC(N)=O)NC(=O)[C@H](Cc2ccc(O)cc2)NC1=O [Compound R3127] (Ac-[Nva]CYNN[Tle]E[Trp(7-aza)]ECP[Phg][Tle]-NH2; linker 2-10 via mXylylene) | < 4.12 |
| CCC[C@H](NC(=O)[C@@H]1CSCc2cccc(c2)CSC[C@H](NC(=O)[C@H](CCC)NC(C)=O)C(=O)N[C@@H](c2ccccc2)C(=O)N[C@@H]([C@@H](C)O)C(=O)N[C@@H](Cc2c[nH]c3ncccc23)C(=O)N[C@@H](CCC(=O)O)C(=O)N[C@@H](C)C(=O)N(C)[C@@H](CO)C(=O)N[C@@H](Cc2c[nH]cn2)C(=O)N1)C(N)=O [Compound R3036] (Ac-[Nva]C[Phg]T[Trp(7-aza)]EA[NMeS]HC[Nva]-NH2; linker 2-10 via mXylylene) | < 4.30 |
| CC(=O)N[C@H]1CSCc2cccc(c2)CSC[C@@H](C(=O)N[C@@H](Cc2c[nH]c3ccccc23)C(=O)N[C@@H](CCC(=O)O)C(=O)N[C@@H](Cc2ccccc2)C(N)=O)NC(=O)[C@H](Cc2ccccc2)NC(=O)[C@H](CCCNC(=N)N)NC(=O)[C@H](CCC(=O)O)NC(=O)[C@H](C(C)C)NC1=O [Compound R3125, [mXylyl(1,6)]Ac-C-V-E-R-F-C-W-E-F-NH2] (Ac-CVERFCWEF-NH2; linker 1-6 via mXylylene) | < 4.00 |

Moving on to another molecule below.
State its pIC50 for this molecule: CCC[C@H](NC(=O)[C@@H]1CSCc2cccc(c2)CSCC[C@H](NC(=O)[C@H](CCC)NC(C)=O)C(=O)N[C@@H](c2ccccc2)C(=O)N[C@@H]([C@@H](C)O)C(=O)N[C@@H](Cc2c[nH]c3ncccc23)C(=O)N[C@@H](CCC(=O)O)C(=O)N[C@@H](Cc2ccc(O)cc2)C(=O)N(C)[C@@H](CO)C(=O)N[C@@H](Cc2c[nH]cn2)C(=O)N1)C(N)=O [Compound R3103] (Ac-[Nva][hCys][Phg]T[Trp(7-aza)]EY[NMeS]HC[Nva]-NH2; linker 2-10 via mXylylene)
< 4.60
